# EXPERIMENTAL TARGET: 11-beta-hydroxysteroid dehydrogenase 1 (Mus musculus, UniProt P50172)
# Sequence (P50172 whole entry): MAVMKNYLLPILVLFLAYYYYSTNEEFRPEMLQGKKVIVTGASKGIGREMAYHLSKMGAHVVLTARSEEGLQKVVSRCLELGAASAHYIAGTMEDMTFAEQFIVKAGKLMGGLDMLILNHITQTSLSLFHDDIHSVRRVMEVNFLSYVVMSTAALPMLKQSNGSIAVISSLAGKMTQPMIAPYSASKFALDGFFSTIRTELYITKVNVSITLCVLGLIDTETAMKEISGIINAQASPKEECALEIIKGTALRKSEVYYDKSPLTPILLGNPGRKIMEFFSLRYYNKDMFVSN
# PROTOCOL NOTES: Inhibition of 11beta-HSD1 in mouse 3T3L1 cells
# Type: cell-based, 3T3-L1
pIC50: −log10 of the molar value.
MEASURE NAME: pIC50

SMI	EXPERIMENTAL TARGET	pIC50
N#Cc1c(=O)[nH]c(OCc2ccccc2Cl)c2cc(F)ccc12	11-beta-hydroxysteroid dehydrogenase 1 (Mus musculus, UniProt P50172)	5.67
N#Cc1ncccc1CSc1nc(O)c(C#N)c2c1COCC2	11-beta-hydroxysteroid dehydrogenase 1 (Mus musculus, UniProt P50172)	5.40
N#Cc1c(O)nc(SCc2ccccc2Cl)c2cc(F)ccc12	11-beta-hydroxysteroid dehydrogenase 1 (Mus musculus, UniProt P50172)	5.65
N#Cc1c(O)nc(SCc2ccccc2Cl)nc1-c1ccccc1	11-beta-hydroxysteroid dehydrogenase 1 (Mus musculus, UniProt P50172)	5.54

---

# Test system: Liver microsomes
# CONDITION LABEL: rat, 10 min, 300 µM
# Description: Metabolic stability of the compound in rat liver microsomes assessed as stability rate per mg of protein at 300 uM after 10 mins by LC-MS/MS analysis in presence of NADPH
MEASURE NAME: Stability (nmol/min)

Known results for compounds:
SMI	UNIT OF MEASURE	Stability
N#Cc1ncccc1CSc1nc(O)c(C#N)c2c1COCC2	nmol/min	0
N#Cc1ncccc1CSc1nc(O)c(C#N)c2ccc(F)cc12	nmol/min	0.02
Oc1cc2c(c(SCc3ccccc3Cl)n1)CCCC2	nmol/min	0.3

a. N#Cc1c(O)nc(SCc2ccccc2Cl)c2c1CCCC2
b. N#Cc1c(O)nc(SCc2ccccc2)c2c1-c1ccccc1CC2
c. N#Cc1c(O)nc(SCc2ccccc2Cl)c2c1CCOC2
### Prompt Arrange the 3 compounds by rising Stability, starting with the smallest. I would appreciate it if you listed the labels in the requested order.
### Response c, b, a

A. N#Cc1c(O)nc(SCC2CCC2)c2c1CCCC2
B. N#Cc1c(=O)[nH]c(OCc2ccccc2Cl)c2cc(F)ccc12
### Prompt Which value of Stability is numerically greater: that of A or that of B ? Answer by quoting the chosen item's label.
### Response A
(A: 0.24 nmol/min, B: 0.04 nmol/min)

A. N#Cc1ccc2c(C#N)c(O)nc(SCc3ccccc3Cl)c2c1
B. N#Cc1c(O)nc(S(=O)(=O)Cc2ccccc2Cl)c2c1CCCC2
### Prompt For this pair, A and B , which shows a numerically higher Stability? Indicate your choice by writing its label.
### Response B
(B: 0.14 nmol/min, A: 0.04 nmol/min)

1. N#Cc1c(O)nc(SCc2ccccc2Cl)c2ccccc12
2. N#Cc1c(O)nc(SCc2ccccc2Cl)c2c1CCN(Cc1ccccc1)C2
### Prompt Which value of Stability is greater, the one for 1 or the one for 2 ? Pick one and reply with its label.
### Response 1
(1: 0.23 nmol/min, 2: 0 nmol/min)

P. N#Cc1ccccc1CSc1nc(O)c(C#N)c2c1CCCC2
Q. N#Cc1c(=O)[nH]c(SCc2ccccc2Cl)c2c(F)cccc12
### Prompt Which shows the larger Stability value: P or Q ? In your reply, give the label of the chosen option.
### Response P

---

# System: Liver
# CONDITION LABEL: mouse, microsomes, 10 min, 300 µM
# Description: Metabolic stability of the compound in mouse liver microsomes assessed as stability rate per mg of protein at 300 uM after 10 mins by LC-MS/MS analysis in presence of NADPH
MEASURE NAME: Stability (nmol/min)

SMI	MEASURE NAME	UNIT OF MEASURE	TEST RESULT
Oc1cc2c(c(SCc3ccccc3Cl)n1)CCCC2	Stability	nmol/min	0.3
N#Cc1ccc2c(C#N)c(O)nc(SCc3ccccc3Cl)c2c1	Stability	nmol/min	0.05
N#Cc1ccc(-c2c(O)nc(SCc3ccccc3Cl)c3c2CCCC3)cc1	Stability	nmol/min	0.18
N#Cc1c(O)nc(Sc2ccccc2Cl)c2c1CCCC2	Stability	nmol/min	0.17
N#Cc1c(=O)[nH]c(SCc2ccccc2Cl)c2c(F)cccc12	Stability	nmol/min	0.08

a. N#Cc1c(O)nc(SCc2ccccc2Cl)c2c1CCCC2
b. N#Cc1c(=O)[nH]c(SCc2ccccc2Cl)c2ccc(F)cc12
c. N#Cc1ncccc1CSc1nc(O)c(C#N)c2ccc(F)cc12
d. N#Cc1ncccc1CSc1nc(O)c(C#N)c2c1CCCC2
e. N#Cc1c(O)nc(SCc2ccccc2Cl)c2cc(F)ccc12
### Prompt Ascending sort, Stability. Answer format: the labels, ordered as requested.
### Response e, c, d, b, a
(e: 0 nmol/min, c: 0.02 nmol/min, d: 0.05 nmol/min, b: 0.1 nmol/min, a: 0.17 nmol/min)
